Please go through the items and note down their Ki.
Target: Protein kinase C epsilon type (Homo sapiens, UniProt Q02156)
Sequence (Q02156 whole entry): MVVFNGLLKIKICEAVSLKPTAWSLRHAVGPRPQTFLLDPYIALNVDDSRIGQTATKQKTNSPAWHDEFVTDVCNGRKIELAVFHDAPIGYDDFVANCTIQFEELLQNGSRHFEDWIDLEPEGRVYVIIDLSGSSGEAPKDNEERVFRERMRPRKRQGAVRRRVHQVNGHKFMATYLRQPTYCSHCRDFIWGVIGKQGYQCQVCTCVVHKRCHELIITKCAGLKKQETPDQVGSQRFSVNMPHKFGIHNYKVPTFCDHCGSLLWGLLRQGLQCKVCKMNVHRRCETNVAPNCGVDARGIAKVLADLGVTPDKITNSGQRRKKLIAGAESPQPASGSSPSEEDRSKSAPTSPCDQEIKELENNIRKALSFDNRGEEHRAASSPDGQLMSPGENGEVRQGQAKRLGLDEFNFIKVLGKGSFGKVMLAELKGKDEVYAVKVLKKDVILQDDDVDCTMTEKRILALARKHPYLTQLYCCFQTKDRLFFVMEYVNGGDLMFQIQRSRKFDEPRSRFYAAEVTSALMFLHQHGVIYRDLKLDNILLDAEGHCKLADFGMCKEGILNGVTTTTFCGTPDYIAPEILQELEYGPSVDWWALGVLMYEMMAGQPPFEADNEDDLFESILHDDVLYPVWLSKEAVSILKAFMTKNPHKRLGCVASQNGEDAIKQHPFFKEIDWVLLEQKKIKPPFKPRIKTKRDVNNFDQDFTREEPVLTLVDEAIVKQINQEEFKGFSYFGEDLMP
Test: Displacement of [3H]-PDBu from protein kinase C epsilon-C1B domain

Report Ki for `CCCCCCCCCCc1cccc2c1C[C@@H](CO)OC(=O)[C@H](C(C)C)N2C` please.
540 nM

Report Ki for `CCCCCCCCCCCN1c2ccccc2C[C@@H](CO)OC(=O)[C@@H]1C(C)C` please.
411 nM

Report Ki for `CCCCCCCCCCc1ccc2c(c1)N(C)[C@@H](C(C)C)C(=O)O[C@H](CO)C2` please.
83 nM

----------
Please go through the items and note down their pKi.
Target: Protein kinase C beta type (Homo sapiens, UniProt P05771)
Sequence (P05771 whole entry, the tested form may be a part): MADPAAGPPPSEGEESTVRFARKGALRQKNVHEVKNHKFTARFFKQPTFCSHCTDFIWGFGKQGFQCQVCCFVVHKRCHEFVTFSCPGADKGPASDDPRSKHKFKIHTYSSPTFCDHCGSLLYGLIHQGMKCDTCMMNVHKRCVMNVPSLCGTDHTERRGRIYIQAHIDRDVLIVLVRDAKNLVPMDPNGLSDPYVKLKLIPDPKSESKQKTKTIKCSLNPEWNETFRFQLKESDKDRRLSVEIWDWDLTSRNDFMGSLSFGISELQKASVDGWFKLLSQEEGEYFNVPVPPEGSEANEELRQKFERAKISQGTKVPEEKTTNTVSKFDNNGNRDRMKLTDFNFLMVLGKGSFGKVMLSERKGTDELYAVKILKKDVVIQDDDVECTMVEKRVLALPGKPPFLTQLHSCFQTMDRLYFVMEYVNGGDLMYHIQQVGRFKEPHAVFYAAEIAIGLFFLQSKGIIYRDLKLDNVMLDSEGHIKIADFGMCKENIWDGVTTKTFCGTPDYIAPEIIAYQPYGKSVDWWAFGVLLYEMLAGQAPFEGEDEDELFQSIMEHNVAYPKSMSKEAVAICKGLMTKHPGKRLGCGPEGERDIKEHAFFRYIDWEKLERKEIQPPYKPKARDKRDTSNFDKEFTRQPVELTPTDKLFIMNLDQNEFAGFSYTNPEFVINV
Assay: Displacement of [3H]PDBu from protein kinase C Beta-C1B domain
# log scale: pKi equals minus log10 of the concentration in mol/L

Report pKi for `CCCCCCCCCCc1cccc2c1C[C@@H](CO)OC(=O)[C@H](C(C)C)N2C` please.
5.57

Report pKi for `CCCCCCCCCCc1ccc2c(c1)N(C)[C@@H](C(C)C)C(=O)O[C@H](CO)C2` please.
6.21

Report pKi for `CCCCCCCCCCCN1c2ccccc2C[C@@H](CO)OC(=O)[C@@H]1C(C)C` please.
5.68

----------
Target: Protein kinase C gamma type (Homo sapiens)
Test: Displacement of [3H]PDBu from protein kinase C gamma-C1A domain
Please go through the items and note down their pKi.
# log scale: pKi equals minus log10 of the concentration in mol/L

Report pKi for `CCCCCCCCCCc1cccc2c1C[C@@H](CO)OC(=O)[C@H](C(C)C)N2C` please.
6.01

Report pKi for `CCCCCCCCCCCN1c2ccccc2C[C@@H](CO)OC(=O)[C@@H]1C(C)C` please.
5.24

Report pKi for `CCCCCCCCCCc1ccc2c(c1)N(C)[C@@H](C(C)C)C(=O)O[C@H](CO)C2` please.
5.63
